Molecular target: hENPP2 (UniProtKB/SwissProt Q13822) (Homo sapiens (Human), UniProt Q13822)
Assay: hENPP2 biochemical assay, LPC as substrate
Settings: LPC (palmitoyl 16:0) as substrate
Description: The principle of the assay consists in quantifying the released choline with an enzymatic method using choline oxidase and peroxidase. Choline oxydation by choline oxydase releases betaine and peroxide. The latter is quantified in presence of HRP that converts the peroxide detection agent TOOS and 4-aminoantipyrine into quinoneimine dye. The appearance of quinoneimine dye is measured spectrophotometrically at 555 nm and is proportional to the amount of choline released by ENPP2. […]
pIC50: −log10 of the molar value.
Measured pIC50 by item

{"compound": "CCc1nc2ccc(C3CCN(CC(=O)N4CCC(O)C4)CC3)cn2c1N(C)c1nc(-c2ccc(F)cc2)cs1 (centres unmarked) [Compound 223]", "pIC50": "6.30 to 7.00"}
{"compound": "CCc1nc2ccc(C3CCN(C(=O)CNC)CC3)cn2c1N(C)c1nc(-c2ccc(F)cc2)cs1 [Compound 127]", "pIC50": "6.00 to 6.30"}
{"compound": "CCc1nc2ccc(C3CCN(S(C)(=O)=O)CC3)cn2c1N(C)c1nc(-c2ccc(F)cc2C)cs1 [Compound 98]", "pIC50": "6.00 to 6.30"}
{"compound": "CCc1nc2ccc(C3=CCN(S(C)(=O)=O)CC3)cn2c1N(C)c1nc(-c2ccc(F)cc2)no1 [Compound 189]", "pIC50": "< 6.00"}
{"compound": "CCc1nc2ccc(C3CCN(CC(=O)N4CC(O)C4)CC3)cn2c1N(C)c1nc(-c2ccc(F)cc2C#N)ns1 [Compound 173]", "pIC50": "7.00 to 11.00"}
{"compound": "CCc1nc2ccc(C3=CCN(S(C)(=O)=O)CC3)cn2c1N(C)c1nc(-c2ccc(OC)cc2)cs1 [Compound 71]", "pIC50": "< 6.00"}
{"compound": "CCc1nc2ccc(C3CCN(S(N)(=O)=O)CC3)cn2c1N(C)c1nc(-c2ccc(F)cc2)cs1 [Compound 92]", "pIC50": "< 6.00"}
{"compound": "CCc1nc2ccc(N3CCN(S(=O)(=O)CCCN(C)C)CC3)cn2c1N(C)c1nc(-c2ccc(F)cc2)cs1 [Compound 56]", "pIC50": "6.00 to 6.30"}
{"compound": "CCc1nc2ccc(C3CCN(CC(=O)N4CC(CO)C4)CC3)cn2c1N(C)c1nc(-c2ccc(F)cc2)c(C#N)s1 [Compound 144]", "pIC50": "7.00 to 11.00"}
{"compound": "CCc1nc2ccc(N3CCNCC3)cn2c1N(C)c1nc(-c2ccc(F)cc2C#N)c(C)s1 [Compound 161]", "pIC50": "< 6.00"}
{"compound": "CCc1nc2ccc(C3CCN(CC(=O)N4CCCC4)CC3)cn2c1N(C)c1nc(-c2ccc(F)cc2)c(CO)s1 [Compound 151]", "pIC50": "6.00 to 6.30"}
{"compound": "CCc1nc2ccc(C3=CCN(S(C)(=O)=O)CC3)cn2c1N(C)c1nc(-c2ccc(Cl)cc2)cs1 [Compound 209]", "pIC50": "< 6.00"}
{"compound": "CCc1nc2ccc(N3CCN(CC(=O)N4CC(CO)C4)CC3)cn2c1N(C)c1nc(-c2ccc(F)cc2)c(C#N)s1 [Compound 139]", "pIC50": "7.00 to 11.00"}
{"compound": "CCc1nc2ccc(N3CCN(S(=O)(=O)CC(N)=O)CC3)cn2c1N(C)c1nc(-c2ccc(F)cc2)cs1 [Compound 61]", "pIC50": "< 6.00"}
{"compound": "CCc1nc2ccc(N3CCN(Cc4nnnn4C4CC4)CC3)cn2c1N(C)c1nc(-c2ccc(F)cc2)cs1 [Compound 39]", "pIC50": "< 6.00"}
{"compound": "CCc1nc2ccc(N3CCN(C(=O)C4CCC(=O)N4)CC3)cn2c1N(C)c1nc(-c2ccc(F)cc2)cs1 (centres unmarked) [Compound 201]", "pIC50": "< 6.00"}
{"compound": "CCc1nc2ccc(N3CCN(CC(=O)N(C)C)CC3)cn2c1N(C)c1nc(-c2ccc(F)cc2)c(C#N)s1 [Compound 140]", "pIC50": "7.00 to 11.00"}
{"compound": "CCc1nc2ccc(N3CCNC3=O)cn2c1N(C)c1nc(-c2ccc(Cl)cc2)cs1 [Compound 183]", "pIC50": "< 6.00"}
{"compound": "CCc1nc2ccc(C3CCN(S(C)(=O)=O)CC3)cn2c1N(C)c1nc(-c2ccc(F)cc2F)cs1 [Compound 100]", "pIC50": "< 6.00"}
{"compound": "CCc1nc2ccc(C3CCN(S(C)(=O)=O)CC3)cn2c1N(C)c1nc(-c2ccc(F)cc2)c(C(=O)OC)s1 [Compound 104]", "pIC50": "< 6.00"}
{"compound": "CCc1nc2ccc(C3CCN(Cc4ccccc4)CC3)cn2c1N(C)c1nc(-c2ccc(F)cc2)cs1 [Compound 217]", "pIC50": "< 6.00"}
{"compound": "CCc1nc2ccc(N3CCN(CC(=O)N4CC(CO)C4)CC3)cn2c1N(C)c1nc(-c2ccc(F)cc2)c(CO)s1 [Compound 146]", "pIC50": "6.00 to 6.30"}
{"compound": "CCc1nc2ccc(C3CCN(CC(=O)N4CC(O)C4)CC3)cn2c1N(C)c1nc(-c2ccc(F)cc2)cs1 [Compound 110]", "pIC50": "6.30 to 7.00"}
{"compound": "CCc1nc2ccc(N3CCN(S(=O)(=O)CCCO)CC3)cn2c1N(C)c1nc(-c2ccc(F)cc2)cs1 [Compound 58]", "pIC50": "< 6.00"}
{"compound": "CCc1nc2ccc(C3=CCN(C(=O)OC(C)(C)C)CC3)cn2c1N(C)c1nc(-c2ccc(F)cc2)cs1 [Compound 214]", "pIC50": "< 6.00"}
{"compound": "CCc1nc2ccc(C3CCN(S(C)(=O)=O)CC3)cn2c1N(C)c1nc(-c2ccc(F)cc2)c(C(N)=O)s1 [Compound 137]", "pIC50": "< 6.00"}
{"compound": "CCc1nc2ccc(N3CC(N)C3)cn2c1N(C)c1nc(-c2ccc(F)cc2)cs1 [Compound 177]", "pIC50": "6.00 to 6.30"}
{"compound": "CCOC(=O)C(C)N1CCN(c2ccc3nc(CC)c(N(C)c4nc(-c5ccc(F)cc5)cs4)n3c2)CC1 (centres unmarked) [Compound 37]", "pIC50": "< 6.00"}
{"compound": "CCc1nc2ccc(N3CCN(C(=O)C4CC(=O)N(Cc5ccccc5)C4)CC3)cn2c1N(C)c1nc(-c2ccc(F)cc2)cs1 (centres unmarked) [Compound 205]", "pIC50": "6.00 to 6.30"}

====

Target: hENPP2 (UniProtKB/SwissProt Q13822) (Homo sapiens (Human), UniProt Q13822)
Assay: hENPP2 biochemical assay, LPC as substrate
Conditions: LPC (palmitoyl 16:0) as substrate
pIC50: −log10 of the molar value.
Below, each of the compounds is paired with its reported pIC50 value.

{"structure-as-smiles": "CCc1nc2ccc(C3CCN(C(=O)CCN(C)C)CC3)cn2c1N(C)c1nc(-c2ccc(F)cc2)cs1", "tgt": "hENPP2 (UniProtKB/SwissProt Q13822) (Homo sapiens (Human), UniProt Q13822)", "pIC50": "6.30 to 7.00"}
{"structure-as-smiles": "CCc1nc2ccc(C3=CCN(S(C)(=O)=O)CC3)cn2c1N(C)c1nc(-c2ccc(OC(F)(F)F)cc2)cs1", "tgt": "hENPP2 (UniProtKB/SwissProt Q13822) (Homo sapiens (Human), UniProt Q13822)", "pIC50": "6.30 to 7.00"}
{"structure-as-smiles": "CCc1nc2ccc(N3CCN(CC(=O)N4CC(O)C4)CC3)cn2c1N(C)c1nc(-c2ccc(F)cc2C#N)cs1", "tgt": "hENPP2 (UniProtKB/SwissProt Q13822) (Homo sapiens (Human), UniProt Q13822)", "pIC50": "7.00 to 11.00"}
{"structure-as-smiles": "CCc1nc2c(C)cc(N3CCN(CC(=O)N4CC[C@@H](O)C4)CC3)cn2c1N(C)c1nc(-c2ccc(F)cc2)c(C#N)s1", "tgt": "hENPP2 (UniProtKB/SwissProt Q13822) (Homo sapiens (Human), UniProt Q13822)", "pIC50": "6.30 to 7.00"}
{"structure-as-smiles": "CCc1nc2ccc(N3CCN(CC(=O)N4CCCC4)CC3)cn2c1N(C)c1nc(-c2ccc(F)cc2)cs1", "tgt": "hENPP2 (UniProtKB/SwissProt Q13822) (Homo sapiens (Human), UniProt Q13822)", "pIC50": "7.00 to 11.00"}
{"structure-as-smiles": "CCc1nc2ccc(C3CCN(S(C)(=O)=O)CC3)cn2c1N(C)c1nc(-c2ccc(OC(F)(F)F)cc2)c(CO)s1", "tgt": "hENPP2 (UniProtKB/SwissProt Q13822) (Homo sapiens (Human), UniProt Q13822)", "pIC50": "< 6.00"}
{"structure-as-smiles": "CN(c1nc(-c2ccc(F)cc2)c(CO)s1)c1c(CCC#N)nc2ccc(C3CCN(S(C)(=O)=O)CC3)cn12", "tgt": "hENPP2 (UniProtKB/SwissProt Q13822) (Homo sapiens (Human), UniProt Q13822)", "pIC50": "6.00 to 6.30"}
